Ref: ChEMBL document CHEMBL3596186

Form field: IC50 (one value per entry).
- Tested on: SK-OV-3
- TEST_DETAILS: Antiproliferative activity against human SKOV3 cells after 48 hrs by MTT assay
- Type: functional, cell-based
- PARTICULARS: SK-OV-3, 48 h

- STRUCTURE_SMILES: "CCOc1ccc(-c2nc(NC(=O)CC)sc2-c2cc(OC)c(OC)c(OC)c2)cc1"
  CENSOR_SYMBOL: "="
  IC50, nM: 60.4
- STRUCTURE_SMILES: "CCCC(=O)Nc1nc(-c2ccc(OCC)cc2)c(-c2cc(OC)c(OC)c(OC)c2)s1"
  CENSOR_SYMBOL: "="
  IC50, nM: 105
- STRUCTURE_SMILES: "CCOc1ccc(-c2nc(C(C)(C)C)sc2-c2cc(OC)c(OC)c(OC)c2)cc1"
  CENSOR_SYMBOL: ">"
  IC50, nM: 5000
- STRUCTURE_SMILES: "CCOc1ccc(-c2nc(C(OCC)OCC)sc2-c2cc(OC)c(OC)c(OC)c2)cc1"
  CENSOR_SYMBOL: ">"
  IC50, nM: 5000
- STRUCTURE_SMILES: "CCOc1ccc(-c2sc(N)nc2-c2cc(OC)c(OC)c(OC)c2)cc1"
  CENSOR_SYMBOL: "="
  IC50, nM: 8.4
